The measurements presented in this section are drawn from PubChem BioAssay AID624129.

What pIC50 was measured for each of the following?
target: C-X-C chemokine receptor type 6 (Homo sapiens) (UniProt O00574); test: potency against CXCR6 with APJ panel – cell-based, beta-arrestin, DiscoveRx, uHTS hits, dose response (AID 624129); details: CXCR6 beta-arrestin (DiscoveRx) antagonist cell assay, CXCR6, run 1, dose range 2
Sequence (O00574 whole entry, looked up): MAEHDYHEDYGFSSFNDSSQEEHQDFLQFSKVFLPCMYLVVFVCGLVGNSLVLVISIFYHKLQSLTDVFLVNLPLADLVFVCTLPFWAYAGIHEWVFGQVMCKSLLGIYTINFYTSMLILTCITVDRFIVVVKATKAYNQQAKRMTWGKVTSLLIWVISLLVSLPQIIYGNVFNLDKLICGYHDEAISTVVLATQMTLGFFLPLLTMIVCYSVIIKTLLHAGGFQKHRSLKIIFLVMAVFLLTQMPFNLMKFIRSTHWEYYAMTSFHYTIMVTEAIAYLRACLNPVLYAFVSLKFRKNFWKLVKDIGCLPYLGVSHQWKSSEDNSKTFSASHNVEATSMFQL
# pIC50 is unitless: minus log10 of the molar concentration; print number only

Value lookup for pIC50; key = COc1ccc(-n2nnnc2S(=O)(=O)CC(=O)N2CCCCC2)cc1
4.72

Same thing, different molecule: COc1ccc(C(=O)N/N=C/c2cccc3cccnc23)cc1
4.90

Ok, now CCCCOc1ccc(C(=O)NNC(=S)NC(=O)CC)cc1
5.13

Try this molecule next: Cc1cc(Cl)n2c(nc3cc(F)c(F)cc32)c1C#N
5.21

Now the same for Cc1ccc2c(Cl)cc(Cl)c(O)c2n1
5.47

Would you kindly repeat that for Cc1[nH]n2c(=O)cc(-c3ccc([N+](=O)[O-])cc3)nc2c1-c1ccccc1 ?
4.86

Also check CCc1nc2c(OCCC3CCCCC3)cccn2c1N(C)C(=O)c1ccc(C)cc1
4.75

// query: CC1=CC(C)(C)N2C(=O)C(=Nc3ccc(O)cc3)c3cccc1c32
4.11

Param item: CCC(=O)OCCNc1cc(Sc2nc3ccccc3s2)c2nonc2c1[N+](=O)[O-]
5.00

Let us now turn to COc1ccc(/C=C/c2ccc3cccc(O)c3n2)c(OC)c1OC
5.46

Try the molecule CCOC(=O)[C@]12Cc3cc(Cl)ccc3[C@H]1N(C1CCCCC1)C(=O)c1cc(OC)ccc12
4.79
